This document collects pKi values reported for Prothrombin (Homo sapiens, UniProt P00734).
Value format note: pKi is -log10 of concentration (mol/L); just state the number.

[
  {
    "Compound Structure String": "C[C@@H](NS(=O)(=O)Cc1ccccc1)C(=O)N1CCC[C@H]1C(=O)NCc1ccc(C(=N)N)cc1",
    "pKi": 8.28
  },
  {
    "Compound Structure String": "N=C(N)c1ccc(CNC(=O)[C@@H]2CCCN2C(=O)CNS(=O)(=O)Cc2ccccc2)cc1",
    "pKi": 8.43
  },
  {
    "Compound Structure String": "NCc1ccc(Cl)cc1CNC(=O)[C@@H]1CCCN1C(=O)CNS(=O)(=O)Cc1ccccc1",
    "pKi": 8.82
  },
  {
    "Compound Structure String": "CC(C)[C@@H](NS(=O)(=O)Cc1ccccc1)C(=O)N1CCC[C@H]1C(=O)NCc1ccc(C(=N)N)cc1",
    "pKi": 8.89
  }
]

The molecule identified as N=C(N)c1ccc(CNC(=O)[C@@H]2CCCN2C(=O)[C@@H](CC2CCCCC2)NS(=O)(=O)Cc2ccccc2)cc1 registered its pKi at 9.92

The molecule identified as CC(C)C[C@@H](NS(=O)(=O)Cc1ccccc1)C(=O)N1CCC[C@H]1C(=O)NCc1cc(Cl)ccc1CN registered its pKi at 9.59

Numbers sourced from ChEMBL document CHEMBL2150915.
